Each entry below carries its reported The normalized value in BLU units.
# Tested on: Myo5 SH3 domain
# ASSAY DETAILS: SPOT analysis of cellulose-bound peptides (WISE), Myo5 SH3 domain (Dataset S4)
# Format: binding, Saccharomyces cerevisiae
# EXPERIMENTAL CONTEXT: SPOT analysis of cellulose-bound 14-mer yeast proteome peptides, Myo5 SH3 domain; normalized value; mean where the peptide was synthesized more than once
Reply with just the number (in BLU).

| MONOMER SEQUENCE | UNITS LABEL | The normalized value in BLU units |
| --- | --- | --- |
| LLAKLPLPRDPRVA | BLU | 343.8 |
| TLFRFIVPFNPYFS | BLU | 881.8 |
| KPLNLSKPISPPPS | BLU | 254.3 |
| TEEILPTPVQPGGH | BLU | 121.0 |

Prompt: Which The normalized value in BLU units is reported for this sequence? PFGTFTLPADPEYK
Completion: 171.6

Prompt: Cool, now GPIIHPGPEPPRYD
Completion: 205.1

Prompt: Cool, now GPSQFAPPPPPPGV
Completion: 20435.9

Prompt: Cool, now IFFKLIHPFLPILH
Completion: 503.3

Prompt: Cool, now YPAKLRIPETPVKK
Completion: 219.9

Prompt: Cool, now AAMNLETPSNPDSA
Completion: 84.9

Prompt: Cool, now PYMYKYLPRFPNLK
Completion: 382.1
